Values from paper PMC4635352

Assay Method Text: pharmacokinetic study of GJG-derived compounds in rat plasma (LC-MS/MS)
Type: in vivo
Condition Parameters: rat plasma after oral GJG 1.0 g/kg; mean ± S.D.; read-out: Cmax
Assay Endpoint: Cmax (ng/mL)

Compound: COC(=O)C1=CO[C@@H](O[C@@H]2O[C@H](CO)[C@@H](O)[C@H](O)[C@H]2O)[C@@H]2[C@@H](C)[C@@H](O)C[C@H]12
Cmax, ng/mL: 43.7

P: C[C@@]12C[C@@]3(O)O[C@@H](O1)[C@]1(COC(=O)c4ccccc4)[C@H]3C[C@@]12O[C@@H]1O[C@H](CO)[C@@H](O)[C@H](O)[C@H]1O
Q: OC[C@H]1O[C@@H](O[C@@H]2OC=C[C@H]3[C@H](O)[C@@H]4O[C@]4(CO)[C@@H]23)[C@H](O)[C@@H](O)[C@@H]1O
R: COC(=O)C1=CO[C@@H](O[C@@H]2O[C@H](CO)[C@@H](O)[C@H](O)[C@H]2O)[C@@H]2[C@H](C)O[C@@H](O)C[C@H]12 [Morroniside, morroniside]
Query: Rank items: key Cmax, increasing. Reply format: the labels, ordered as requested.
Response: P, R, Q

###

Assay Method Text: pharmacokinetic study of GJG-derived compounds in rat plasma (LC-MS/MS)
Format: in vivo
Condition Parameters: rat plasma after oral GJG 1.0 g/kg; mean ± S.D.; read-out: Tmax
Assay Endpoint: Tmax (min)

Illustrative cases are given below, each with its answer.
Compound: C[C@@]12C[C@@]3(O)O[C@@H](O1)[C@]1(COC(=O)c4ccccc4)[C@H]3C[C@@]12O[C@@H]1O[C@H](CO)[C@@H](O)[C@H](O)[C@H]1O [Paeoniflorin, paeoniflorin]
Tmax / min: 34.8

Compound: COC(=O)C1=CO[C@@H](O[C@@H]2O[C@H](CO)[C@@H](O)[C@H](O)[C@H]2O)[C@@H]2[C@H](C)O[C@@H](O)C[C@H]12 [Morroniside, morroniside]
Tmax / min: 40.2

A: OC[C@H]1O[C@@H](O[C@@H]2OC=C[C@H]3[C@H](O)[C@@H]4O[C@]4(CO)[C@@H]23)[C@H](O)[C@@H](O)[C@@H]1O [Catalpol, catalpol]
B: COC(=O)C1=CO[C@@H](O[C@@H]2O[C@H](CO)[C@@H](O)[C@H](O)[C@H]2O)[C@@H]2[C@@H](C)[C@@H](O)C[C@H]12 [Loganin, loganin]
Query: Which item exceeds the other in Tmax, A or B ? Use the label to indicate which entry you chose.
Response: A
(A: 60 min, B: 34.8 min)

###

Reported Cmax values for the following molecules.
Assay Method Text: pharmacokinetic study of GJG-derived compounds in rat plasma (LC-MS/MS)
Format: in vivo
Condition Parameters: rat plasma after oral GJG 1.0 g/kg; mean ± S.D.
Respond numerically; units are ng/mL and should not be typed.

Illustrative cases are given below, each with its answer.
Molecular String: COC[C@@]12CC[C@H](OC)[C@]34C([C@H]([C@H](OC)[C@H]13)[C@]1(O)[C@H]3[C@@H](OC(=O)c5ccccc5)[C@](O)(C[C@H]34)[C@@H](OC)[C@@H]1O)N(C)C2
Cmax, ng/mL: 0.013

Molecular String: COC[C@]12CN(C)C3[C@@H]4[C@H](OC)[C@H]1[C@@]3([C@@H](OC)C[C@H]2O)[C@@H]1C[C@@]2(O)[C@H](OC(=O)c3ccccc3)[C@@H]1[C@]4(O)[C@@H](O)[C@@H]2OC
Cmax, ng/mL: 0.041

Molecular String: CCN1C[C@]2(COC)[C@H](O)C[C@H](OC)C34C1C([C@H](OC)[C@@H]32)[C@]1(O)[C@@H]2[C@H]4C[C@@](O)([C@@H]2OC(=O)c2ccc(OC)cc2)[C@@H](OC)[C@@H]1O
Cmax, ng/mL: 0.009

Lab note: next molecule to report on.
Query: Return reported Cmax. Input molecule: CCN1C[C@]2(COC)[C@H](O)C[C@H](OC)[C@@]34[C@@H]5C[C@@]6(O)[C@H](OC(=O)c7ccccc7)[C@@H]5[C@@](O)([C@@H]([C@H](OC)[C@H]23)[C@@H]14)[C@@H](O)[C@@H]6OC
Response: 0.012
